Quick list: Binding Score per entry.
# assay.system: T1, Soluble CD28-Ig (human, UniProt P10747 19-152, biotin-conjugated (NHS-biotin) in the labelled-ligand FACS assays)
# T1 construct: extracellular domain; Bought from R&D Systems; also called sCD28-Ig; CD28-Ig Fc; not shown: Fc portion of human IgG1
# procedure.text: two-colour FACS profile on transfected cells; score of preference for CD28-Ig over CTLA-4-Ig vs WT hB7-1
Answer with a bare number; do not write a unit.

# binder, Binding Score
rows = [
    ("Round 2 CD28D11-1 (ligand) ITPKSVTKRVKETVMLSCDYNTSTEELTSLRIYWQKDSKMVLAILPGKVQVWPEYKNRTITDMNDNPRIVILALRLSDSGTYTCVVQKNENGSFRREHLTSVTLSIRADFPVPSITDIGHPAPNVKRIRCSASGDFPEPRLAWMEDGEELNAVNTTVDQDLDTELYSVSSELDFNVTNNHSIVCLIKYGELSVSQIFPWSKPKQEPPIDQLPFWVIILVSGALVLTAVVLYCLACRHVARWKRTRRNEETVGTERLSPIYLGSAQSSG", 2),
    ("Round 2 CD28G1-5 (ligand) SGITPKSVTKRVKETVMLSCDYSTSTEELTSLRIYWQKDSKMVLAILPGKVQVWPEYKNRTFPDIINNLSLMILALRLSDKGTYTCVVQKNENGSFRREHLTSVTLSIRADFPVSSITDIGHPAPNVKRIRCSASGGFPEPRLAWMEDGEELNAVNTTVDQDLDTELYSVSSELDFNVTNNHSIVCLIKYGELSVSQIFPWSKPKQEPPIDQLPFWVIIPVSGALVLTAVVLYCLACRHVARWKRTRRNEETVGTERLSPIYLGSAQSSG", 1),
    ("Round 2 CD28E2-5* (ligand) TTPKSVTKRVKETVMLSCDYNTSTEELTSLRIYWQKDSKMVLAILPGKVQVWPEYKNRTITDMNDNPRIVILALRPSDSGTYTCVIQKPVLKGAYKLEHLASVRLMIRADFPVPTINDLGNPSPNIRRLICSTSGGFPRPHLYWLENGEELNATNTTLSQDPETKLYMISSELDFNMTSNHSFLCLVKYGDLTVSQTFYWQESKPTPSANQHLTWTIIIPVSAFGISVIIAVILTCLTCRNAAIRRQRRENEVEMQSCSQSP", 0),
    ("Round 2 CD28BP-17 (ligand) SGITPKSVTKRVKETVMLSCDYSTSTEELTSLRIYWQKDSKMVLAILPGKVQVWPEYKNRTFPDIINNLSLMILALRLSDKGTYTCVVQKNENGSFRREHLTSVTLSIRADFPVPSITDIGHPAPNVKRIRCSASGDFPEPRLAWMEDGEELNAVNTTVDQDLDTELYSVSSELDFNVTNNHSIVCLIKYGELSVSQIFPWSKPKQEPPIDQLPFWVIIPVSGALVLTVVVLYCLACRHVARWKRTRRNEETVGTERLSPIYLGSAQSSG", 2),
]

Next, consider the following binder.
[ask] // lookup Binding Score for Round 1 CD28BP-71 (ligand, also called R1clone71; Clone 71) ITPKSVTKRVKETVMLSCDYNTSTEELTSLRIYWQKDSKMVLAILPGKVQVWPEYKNRTITDMNDNPRIVILALRLSDSGTYTCVIQKPVLKGAYKLEHLASVRLMIRADFPVPTINDLGNPSPNIRRLICSTSGGFPRPHLYWLENGEELNATNTTLSQDPETKLYMISSELDFNMTSNHSFLCLVKYGDLTVSQTFYWQESKPTPSANQHLTWTIIIPVSAFGISVIIAVILTCLTCRNAAIRRQRRENEVEMQSCSQSP
[reply] 1

Reference source for all entries: patent US20050154189A1
